protein stability index for assorted variants
B1: TNXB (parent)
chain: LLQRELMVPGTRHSAVLRDLRSGT

variants of: B1; test: protein stability index of a GFP-peptide fusion (GPS, HEK-293T) (PSI 1-6); higher = more stable; settings: c terminus: a fixed tail appended;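 further: lentivirally expressed fusions sorted by FACS into six bins by GFP to DsRed ratio, PSI derived from sequencing read proportions per bin multiplied by bin number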

{"columns": ["CHANGE", "protein stability index"],
 "data": [
  ["R18L", 1.94],
  ["R21P", 2.85],
  ["L6K", 2.79],
  ["V8S", 3.11],
  ["M7K", 2.52],
  ["T11E", 2.65],
  ["L20M", 2.25],
  ["L17E", 3.47],
  ["L20G", 3.37],
  ["G23M", 2.22],
  ["L20N", 3.53],
  ["V8D", 2.91],
  ["R21A", 2.73],
  ["M7H", 2.35],
  ["D19I", 1.71],
  ["R21V", 1.88],
  ["V8M", 2.15],
  ["R12P", 2.91],
  ["E5V", 2.11],
  ["L6T", 3.53],
  ["D19R", 1.69],
  ["L20D", 3.65]
]}

Measured values drawn from the supplement of paper PMC10567573 for this set.
